The reported numbers originate from patent US20130065885A1.

Experiment: physchem
Details: water
Structures can show the parent of a compound that is named as a salt.
measuredMetric: solubility (mg/mL)
Field: numeric (mg/mL). Do not append units.

// query If you can, please state the reported solubility value of COc1cccc(C2(O)CCCCC2CN(C)C)c1 (stereo not shown) [tramadol hydrochloride] .
// result 30
